biological target: T1, human IL-13 R130Q variant (R110Q of the mature chain) (human, UniProt P35225 35-146, Biotinylated on amines (NHS-LC-biotin, 4:1) in ELISA, panning and competition assays. The letters are unchanged.); assay: SPR (Biacore), mAb made in HEK293
T1 construct: R130Q counts from Met 1 of the signal peptide, R110Q on the mature chain; Bought from Peprotech; also called IL-13 R110Q; b-R130Q
T1 sequence (P35225 35-146 limits assumed, stated change not applied): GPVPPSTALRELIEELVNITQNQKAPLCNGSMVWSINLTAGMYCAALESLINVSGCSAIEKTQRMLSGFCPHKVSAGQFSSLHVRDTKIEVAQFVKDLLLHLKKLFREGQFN
What pKd was measured for each of the following?
pKd here is simply -log10 of the concentration when that concentration is written in mol/L.

QUERY: For the binder mAb Lc-2B03 with Hc2 M34S, M100L (antibody, V domains shown, full-length mAb, made in HEK293 and CHO) VH: QVTLKESGPVLVKPTETLTLTCTVSGFSLSTYGSGVGWIRQPPGKALEWLAHIWWDDVKRYNPALKSRLTISKDTSKSQVVLTMTNMDPVDTATYYCARLGSDYDVWFDYWGQGTLVTVSS VL: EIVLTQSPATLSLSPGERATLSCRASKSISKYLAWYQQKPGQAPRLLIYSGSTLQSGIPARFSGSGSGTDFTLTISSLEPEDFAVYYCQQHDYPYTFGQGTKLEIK , what pKd is on record?
RESULT: 11.85

QUERY: Returns the measured pKd for the input binder. Input: mAb Lc-2B03 with Hc2 M34V, M100L (antibody, V domains shown, full-length mAb, made in HEK293 and CHO) VH: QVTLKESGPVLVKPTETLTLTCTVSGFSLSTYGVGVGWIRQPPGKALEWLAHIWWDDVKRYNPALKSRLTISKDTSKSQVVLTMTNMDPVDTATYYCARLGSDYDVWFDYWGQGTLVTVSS VL: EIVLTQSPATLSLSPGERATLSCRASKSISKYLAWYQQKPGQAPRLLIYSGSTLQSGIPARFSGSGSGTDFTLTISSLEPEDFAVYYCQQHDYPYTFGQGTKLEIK
RESULT: 10.79

QUERY: I have this binder here, mAb Lc-2B03 with Hc2 M34Q, M100L (antibody, V domains shown, full-length mAb, made in HEK293 and CHO) VH: QVTLKESGPVLVKPTETLTLTCTVSGFSLSTYGQGVGWIRQPPGKALEWLAHIWWDDVKRYNPALKSRLTISKDTSKSQVVLTMTNMDPVDTATYYCARLGSDYDVWFDYWGQGTLVTVSS VL: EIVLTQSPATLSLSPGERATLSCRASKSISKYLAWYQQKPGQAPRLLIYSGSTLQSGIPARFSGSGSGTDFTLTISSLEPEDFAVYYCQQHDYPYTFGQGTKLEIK , and I need its recorded pKd.
RESULT: 10.61
